system: Triticum aestivum (TRZAS); experiment: F. Post-emergence effect on useful plants, TRZAS; type: in vivo; details: useful plant, application rate 80 g/ha
PROPERTY: Post-emergence efficacy against TRZAS in %
Don't forget the unit after the value.

Worked cases, Post-emergence efficacy against TRZAS in % given:
COMPOUND	RESULT
O=S(=O)(CCC(F)(F)F)Oc1c(Br)cccc1Oc1ncc(F)cn1 [Example I-43]	0%
CC(C)CCS(=O)(=O)Oc1ccccc1Oc1ncc(Cl)cn1 [Example I-25]	0%

State its Post-emergence efficacy against TRZAS in % on Triticum aestivum (TRZAS): O=S(=O)(CCl)Oc1ccccc1Oc1ncc(Cl)cn1 [Example I-9]
20%

###

Quick reference: Pre-emergence efficacy against STEME of the listed items.
system: Stellaria media (STEME); test: A. Herbicidal pre-emergence efficacy, STEME; type: in vivo; settings: dosage 320 g/ha

Worked cases, Pre-emergence efficacy against STEME given:
MOLECULE	TARGET ENTITY	RESULT
Cc1cccc(Oc2ncc(Br)cn2)c1OS(=O)(=O)CCC(F)(F)F	Stellaria media (STEME)	100%
O=S(=O)(CCCC(F)(F)F)Oc1c(F)cccc1Oc1ncc(Cl)cn1	Stellaria media (STEME)	100%

Which Pre-emergence efficacy against STEME reading was recorded for the molecule O=S(=O)(CCC(F)(F)F)Oc1c(F)cccc1Oc1ncc(Cl)cn1 ?
100%

Which Pre-emergence efficacy against STEME reading was recorded for the molecule Cc1cccc(Oc2ncc(Cl)cn2)c1OS(=O)(=O)CC1CC1(Cl)Cl (stereo not drawn) ?
90%

Which Pre-emergence efficacy against STEME reading was recorded for the molecule O=S(=O)(CCC(F)(F)F)Oc1c(F)cccc1Oc1ncc(Br)cn1 ?
100%

Which Pre-emergence efficacy against STEME reading was recorded for the molecule COCCS(=O)(=O)Oc1c(F)cccc1Oc1ncc(Cl)cn1 ?
90%

Which Pre-emergence efficacy against STEME reading was recorded for the molecule O=S(=O)(CCC(F)(F)F)Oc1c(Br)cccc1Oc1ncc(Cl)cn1 ?
100%

Which Pre-emergence efficacy against STEME reading was recorded for the molecule Cc1cccc(Oc2ncc(Cl)cn2)c1OS(=O)(=O)CCCC(F)(F)F ?
100%

Which Pre-emergence efficacy against STEME reading was recorded for the molecule CCCCCS(=O)(=O)Oc1ccccc1Oc1ncc(Cl)cn1 ?
100%

Which Pre-emergence efficacy against STEME reading was recorded for the molecule N#Cc1cccc(Oc2ncc(Cl)cn2)c1OS(=O)(=O)CC1CC(F)(F)C1 ?
90%

###

system: Triticum aestivum (TRZAS); experiment: F. Post-emergence effect on useful plants, TRZAS; format: in vivo; conditions: useful plant, application rate 320 g/ha
Quick reference: Post-emergence efficacy against TRZAS in % of the listed items.
// return numeric value only (unit: %, not printed)

Worked cases, Post-emergence efficacy against TRZAS in % given:
COMPOUND	QUANTITATIVE READOUT
O=S(=O)(CCCC(F)(F)F)Oc1c(Cl)cccc1Oc1ncc(Br)cn1 [Example I-34]	20
COCCS(=O)(=O)Oc1c(F)cccc1Oc1ncc(Cl)cn1 [Example I-52]	0
O=S(=O)(CCC(F)(F)F)Oc1c(F)cccc1Oc1ncc(Br)cn1 [Example I-40]	20
CCCS(=O)(=O)Oc1ccccc1Oc1ncc(Cl)cn1 [Example I-3]	10
O=S(=O)(CCC(F)(F)F)Oc1c(Br)cccc1Oc1ncc(F)cn1 [Example I-43]	0

Which Post-emergence efficacy against TRZAS in % reading was recorded for the compound O=S(=O)(CCC(F)=C(F)F)Oc1c(Cl)cccc1Oc1ncc(Cl)cn1 [Example I-73] ?
20

Which Post-emergence efficacy against TRZAS in % reading was recorded for the compound C=CCS(=O)(=O)Oc1ccccc1Oc1ncc(Cl)cn1 [Example I-36] ?
0

Which Post-emergence efficacy against TRZAS in % reading was recorded for the compound Cc1cccc(Oc2ncc(Cl)cn2)c1OS(=O)(=O)CCC(F)=C(F)F [Example I-71] ?
0
